- tested system: Helios (Homo sapiens, UniProt Q96SW2+Q9UKS7)
- Construct: endogenous in cells; host or cells: Jurkat cells, CRISPR/Cas9 knock-in of HiBit at the IKZF2 locus
- Sequence (Q9UKS7 whole entry): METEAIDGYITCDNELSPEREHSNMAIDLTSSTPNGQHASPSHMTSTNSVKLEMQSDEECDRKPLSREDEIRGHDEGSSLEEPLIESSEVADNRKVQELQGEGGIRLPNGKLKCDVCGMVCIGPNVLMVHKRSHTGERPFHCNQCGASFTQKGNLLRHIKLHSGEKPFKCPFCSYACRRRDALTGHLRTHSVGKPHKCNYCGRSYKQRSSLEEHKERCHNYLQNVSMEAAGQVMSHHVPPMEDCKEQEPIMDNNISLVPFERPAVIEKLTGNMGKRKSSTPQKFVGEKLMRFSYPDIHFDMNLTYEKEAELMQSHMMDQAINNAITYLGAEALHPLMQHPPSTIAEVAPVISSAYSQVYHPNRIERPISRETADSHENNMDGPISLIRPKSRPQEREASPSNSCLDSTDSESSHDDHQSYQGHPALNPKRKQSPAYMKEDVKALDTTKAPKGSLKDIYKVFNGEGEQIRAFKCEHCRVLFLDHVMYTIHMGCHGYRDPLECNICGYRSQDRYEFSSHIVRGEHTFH
- Sequence (Q96SW2 whole entry): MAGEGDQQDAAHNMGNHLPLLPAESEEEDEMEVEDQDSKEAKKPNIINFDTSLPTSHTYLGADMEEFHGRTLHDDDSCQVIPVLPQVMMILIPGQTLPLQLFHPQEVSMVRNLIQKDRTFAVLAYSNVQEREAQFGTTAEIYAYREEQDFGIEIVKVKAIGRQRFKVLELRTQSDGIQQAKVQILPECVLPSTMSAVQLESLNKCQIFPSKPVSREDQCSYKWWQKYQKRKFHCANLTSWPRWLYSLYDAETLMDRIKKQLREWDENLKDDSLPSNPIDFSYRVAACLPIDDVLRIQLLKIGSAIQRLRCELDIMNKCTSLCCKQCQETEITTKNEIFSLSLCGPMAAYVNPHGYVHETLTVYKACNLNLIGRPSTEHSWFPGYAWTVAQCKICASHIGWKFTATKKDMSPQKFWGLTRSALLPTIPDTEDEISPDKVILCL
- Sequence (Q16531 whole entry partner): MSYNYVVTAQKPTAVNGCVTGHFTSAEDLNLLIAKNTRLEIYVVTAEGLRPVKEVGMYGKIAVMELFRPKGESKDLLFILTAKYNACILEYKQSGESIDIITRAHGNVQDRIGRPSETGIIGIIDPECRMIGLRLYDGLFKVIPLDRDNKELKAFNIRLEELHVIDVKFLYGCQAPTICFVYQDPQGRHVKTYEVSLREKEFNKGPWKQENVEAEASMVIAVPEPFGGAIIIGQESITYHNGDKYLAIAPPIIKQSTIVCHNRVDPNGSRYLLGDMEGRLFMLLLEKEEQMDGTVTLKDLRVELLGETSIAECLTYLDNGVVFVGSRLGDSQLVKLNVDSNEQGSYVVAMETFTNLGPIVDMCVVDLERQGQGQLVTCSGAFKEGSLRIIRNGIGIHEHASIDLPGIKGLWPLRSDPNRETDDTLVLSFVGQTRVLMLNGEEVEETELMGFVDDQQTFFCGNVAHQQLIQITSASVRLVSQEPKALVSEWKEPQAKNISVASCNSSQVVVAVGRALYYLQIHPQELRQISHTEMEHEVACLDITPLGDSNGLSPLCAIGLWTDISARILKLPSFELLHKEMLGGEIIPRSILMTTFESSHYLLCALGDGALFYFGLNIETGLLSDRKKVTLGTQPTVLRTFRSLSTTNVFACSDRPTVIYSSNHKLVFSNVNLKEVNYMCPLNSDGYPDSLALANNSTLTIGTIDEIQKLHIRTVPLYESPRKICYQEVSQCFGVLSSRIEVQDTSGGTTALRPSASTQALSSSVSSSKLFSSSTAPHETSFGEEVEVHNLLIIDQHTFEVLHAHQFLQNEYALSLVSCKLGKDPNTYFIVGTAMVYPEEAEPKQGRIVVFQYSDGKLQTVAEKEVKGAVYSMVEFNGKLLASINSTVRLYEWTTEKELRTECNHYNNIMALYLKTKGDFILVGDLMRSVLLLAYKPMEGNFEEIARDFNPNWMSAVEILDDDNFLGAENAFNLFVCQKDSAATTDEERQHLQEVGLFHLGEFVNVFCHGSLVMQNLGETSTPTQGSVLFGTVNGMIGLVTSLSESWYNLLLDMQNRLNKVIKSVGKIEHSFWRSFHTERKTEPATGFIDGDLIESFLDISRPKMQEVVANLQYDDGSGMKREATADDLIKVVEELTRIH
- test summary: Helios degradation in Jurkat/Helios/HiBit cells (Nano-Glo luminescence)
- Assay type: cell-based
- condition parameters: Ymax is the % protein degraded, 18 hr
The label depends only on Helios Jurkat Hibit YMax: true (1) if it is at least 60%, false (0) if it is smaller.

- Cc1cc(-c2cc(F)c3c(c2)CN(C2CCC(=O)NC2=O)C3=O)nc(N)c1C (stereo not drawn): true (1)
- CC1(C)Cc2cccc(CN3CCN(Cc4c(F)cc5c(c4F)CN(C4CCC(=O)NC4=O)C5=O)CC3)c2O1 (stereo not drawn): true (1)
- O=C1CCC(N2Cc3c(cc(F)c(CN4CCN(Cc5ccc6c(c5)OCCO6)CC4)c3F)C2=O)C(=O)N1 (stereo not drawn): true (1)
- O=C1CCC(N2Cc3c(cc(F)c(C4CCN(Cc5ccc6[nH]ncc6c5)CC4)c3F)C2=O)C(=O)N1 (stereo not drawn): false (0)
- Cc1ccc(CN2CCC(c3c(F)cc4c(c3F)CN(C3CCC(=O)NC3=O)C4=O)CC2)cc1F (stereo not drawn): false (0)

###

Entries and their Dmax
- tested system: IKZF1 ZNF2_ZNF3 Q1F degron-tagged CD19 CAR (Homo sapiens, UniProt Q13422, Q146F)
- Construct: ZNF2_ZNF3 Q1F degron (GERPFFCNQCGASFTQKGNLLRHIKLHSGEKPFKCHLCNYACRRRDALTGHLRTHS); fused on or other part: anti-CD19 scFv, CD28 transmembrane domain, 4-1BB costimulatory domain, CD3 zeta signaling domain (the CAR that carries the degron), and Nluc
- Sequence (Q13422 whole entry Q146F, the tested form may be a part): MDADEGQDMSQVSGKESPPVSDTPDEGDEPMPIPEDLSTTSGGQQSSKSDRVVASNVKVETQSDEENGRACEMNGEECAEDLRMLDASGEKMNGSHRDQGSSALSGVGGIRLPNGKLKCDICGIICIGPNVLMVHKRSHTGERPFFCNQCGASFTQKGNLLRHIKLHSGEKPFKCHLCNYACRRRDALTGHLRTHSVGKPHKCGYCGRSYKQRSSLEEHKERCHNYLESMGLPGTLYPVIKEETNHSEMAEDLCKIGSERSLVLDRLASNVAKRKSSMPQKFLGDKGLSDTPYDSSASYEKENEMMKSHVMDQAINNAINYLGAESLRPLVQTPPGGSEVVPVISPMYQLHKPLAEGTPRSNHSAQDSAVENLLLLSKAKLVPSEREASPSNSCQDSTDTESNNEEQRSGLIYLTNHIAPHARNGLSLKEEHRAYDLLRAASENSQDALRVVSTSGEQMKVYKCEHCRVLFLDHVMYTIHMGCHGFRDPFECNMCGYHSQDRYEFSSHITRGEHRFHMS
- test summary: Degradation of Q1F degron-tagged CD19 CAR in Jurkat cells (flow cytometry of CAR levels)
- Assay type: cell-based
- condition parameters: Ymax is the % protein degraded; Jurkat cells expressing Q1F degron-tagged CD19 CAR; 18 hours; read-out: Q1F Jurkat-YMax
readout type: Dmax (%)

* O=C1CCC(N2Cc3c(cc(F)c(C4CCN(CC(c5ccccc5)c5ccccc5)CC4)c3F)C2=O)C(=O)N1 (stereo not shown) [Compound 10] | 90.7
* O=C1CCC(N2Cc3c(cc(F)c(C4CCN(Cc5ccc6ccccc6n5)CC4)c3F)C2=O)C(=O)N1 (stereo not shown) [Compound 53] | 93.3
* O=C1CCC(N2Cc3c(cc(F)c(C4CCN(CCC(F)(F)F)CC4)c3F)C2=O)C(=O)N1 (stereo not shown) [Compound 114] | 74.8
* O=C1CCC(N2Cc3c(cc(F)c(C4CCN(Cc5nc(-c6ccccc6)no5)CC4)c3F)C2=O)C(=O)N1 (stereo not shown) [Compound 99] | 58.6
* O=C1CCC(N2Cc3c(cc(F)c(C4(O)CCN(Cc5ccc(C(F)(F)F)cc5F)CC4)c3F)C2=O)C(=O)N1 (stereo not shown) [Compound 20] | 77.1
* CN(CCN1CCC(O)(c2c(F)cc3c(c2F)CN(C2CCC(=O)NC2=O)C3=O)CC1)S(=O)(=O)c1ccccc1 (stereo not shown) [Compound 40] | 60
* COc1ccc(CN2CCC(O)(c3c(F)cc4c(c3F)CN(C3CCC(=O)NC3=O)C4=O)CC2)nc1 (stereo not shown) [Compound 37] | 62.5
